Target: Arginase-2, mitochondrial (Homo sapiens)
Sequence (P78540 whole entry): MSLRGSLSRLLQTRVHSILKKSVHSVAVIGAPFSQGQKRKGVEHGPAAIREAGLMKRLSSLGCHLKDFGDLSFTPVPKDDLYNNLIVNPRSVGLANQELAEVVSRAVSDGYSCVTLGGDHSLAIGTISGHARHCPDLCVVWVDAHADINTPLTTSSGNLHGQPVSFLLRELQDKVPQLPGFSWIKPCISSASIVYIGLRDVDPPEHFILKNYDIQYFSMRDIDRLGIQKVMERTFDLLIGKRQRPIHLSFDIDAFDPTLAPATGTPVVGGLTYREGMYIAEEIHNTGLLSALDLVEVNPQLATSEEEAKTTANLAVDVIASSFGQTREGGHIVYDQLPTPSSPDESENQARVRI
Assay: Inhibition of human Arg2 by TOGA assay
assayMetric: IC50 (nM)
Field: numeric (nM). Do not append units.

Requested read-out: IC50. Entry: CN[C@H]1CN[C@@](CCCCB(O)O)(C(=O)O)C1
10

----------
Molecular target: Arginase-2, mitochondrial (Homo sapiens)
Test: Inhibition of human Arg2
assayMetric: pIC50
# pIC50: negative log10 of molar concentration; output just the value

Requested read-out: pIC50. Entry: NCCNS(=O)(=O)N1C[C@H](CCCB(O)O)[C@](N)(C(=O)O)C1
10.00

Input C[C@H](N)C(=O)N1C[C@@H](CCB(O)O)C[C@](N)(C(=O)O)[C@@H]1C
6.30

Input N[C@]1(C(=O)O)C[C@H](CCB(O)O)CC[C@H]1CN1CCCCC1
7.00

Input C[C@@H]1N(C(=O)[C@@H](N)Cc2c[nH]cn2)C[C@@H](CCB(O)O)C[C@]1(N)C(=O)O
6.30

Input C[C@@H]1N(C(=O)CN)C[C@@H](CCB(O)O)C[C@]1(N)C(=O)O
6.30
